test system: P. aeruginosa PA14; assay: static peg (Calgary Biofilm Device) anti-biofilm assay, crystal violet and OD600; conditions: read-out: BIC50; biofilm formation, 25° C.
pIC50: −log10 of the molar value.
PROPERTY_NAME: pIC50

INSERT INTO assay_data (molecule, measured) VALUES
  ('CCCCNc1ncc(-c2ccc(Br)cc2)[nH]1 [Compound 4]', 5.01),
  ('CCCCCCCCn1c(-c2ccc(Cl)cc2)cnc1N [Compound 2]', 5.40),
  ('Clc1ccc(-c2cnc(NC3CCCC3)[nH]2)cc1 [Compound 5]', 4.87),
  ('CC(C)CNc1ncc(-c2ccc(Cl)cc2)[nH]1 [Compound 3]', 6.05),
  ('Brc1ccc(-c2cnc(NCCn3cc(C4CC4)nn3)[nH]2)cc1 [Compound 6]', 4.15);
